# study system: human nAChRα6-α3 chimera, in addition to β2 and β3^V273S subunits (Homo sapiens, UniProt P32297+Q15825)
# Construct: expressed in transfected cells
# Sequence (Q05901 25-458 V273S): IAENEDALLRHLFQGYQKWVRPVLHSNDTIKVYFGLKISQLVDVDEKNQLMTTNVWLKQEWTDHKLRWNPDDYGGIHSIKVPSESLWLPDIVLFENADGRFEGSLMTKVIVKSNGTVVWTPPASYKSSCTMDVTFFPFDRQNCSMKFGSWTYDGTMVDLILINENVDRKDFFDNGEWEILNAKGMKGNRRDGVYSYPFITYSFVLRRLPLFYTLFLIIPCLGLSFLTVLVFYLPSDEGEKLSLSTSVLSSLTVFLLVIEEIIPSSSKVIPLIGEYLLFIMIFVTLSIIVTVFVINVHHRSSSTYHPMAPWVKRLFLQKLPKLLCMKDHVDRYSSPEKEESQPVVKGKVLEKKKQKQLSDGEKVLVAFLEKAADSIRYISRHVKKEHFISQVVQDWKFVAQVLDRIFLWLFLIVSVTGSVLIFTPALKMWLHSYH
# Sequence (P17787 26-502, stated change not applied, further chain): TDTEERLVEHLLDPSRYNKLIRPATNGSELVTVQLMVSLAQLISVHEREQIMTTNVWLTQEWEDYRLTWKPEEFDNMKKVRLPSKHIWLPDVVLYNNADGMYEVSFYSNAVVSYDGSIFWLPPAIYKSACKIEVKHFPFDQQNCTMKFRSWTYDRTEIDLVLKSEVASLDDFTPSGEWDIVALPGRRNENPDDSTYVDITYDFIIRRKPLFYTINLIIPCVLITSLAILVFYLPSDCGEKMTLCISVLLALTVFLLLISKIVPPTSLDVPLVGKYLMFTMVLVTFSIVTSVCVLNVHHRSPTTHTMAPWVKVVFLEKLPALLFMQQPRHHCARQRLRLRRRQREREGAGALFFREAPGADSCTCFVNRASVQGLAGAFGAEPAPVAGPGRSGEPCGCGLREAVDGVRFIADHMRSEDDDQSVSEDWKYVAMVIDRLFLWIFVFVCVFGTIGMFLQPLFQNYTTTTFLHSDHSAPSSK
# Sequence (Q15825+P32297 fused with the stated changes): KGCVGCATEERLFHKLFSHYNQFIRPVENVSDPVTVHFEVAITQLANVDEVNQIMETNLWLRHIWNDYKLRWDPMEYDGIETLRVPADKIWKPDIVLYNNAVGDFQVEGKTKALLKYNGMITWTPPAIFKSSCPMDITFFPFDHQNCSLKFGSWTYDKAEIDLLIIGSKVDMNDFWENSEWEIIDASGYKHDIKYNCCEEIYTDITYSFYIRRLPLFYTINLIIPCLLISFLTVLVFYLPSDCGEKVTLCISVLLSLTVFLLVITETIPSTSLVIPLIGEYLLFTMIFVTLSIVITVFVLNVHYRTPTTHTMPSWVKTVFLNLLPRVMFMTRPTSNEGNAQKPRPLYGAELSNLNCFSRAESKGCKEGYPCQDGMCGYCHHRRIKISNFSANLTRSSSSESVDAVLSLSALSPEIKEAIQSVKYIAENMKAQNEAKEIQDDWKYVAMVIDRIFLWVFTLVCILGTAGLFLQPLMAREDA
# protocol text: fluorescence-based calcium assay: inhibition of nicotine stimulated nAChRα6 activity (FLIPR)
# conditions used: HEK cell line stably expressing the receptor; 10 min pre-incubation, nicotine EC80; 10-point curve, duplicate wells; read-out: IC50
# Protocol: The ability of the test compounds to inhibit nicotine stimulated nAChRα6 activity was determined in a fluorescence-based calcium assay. Compound activity was determined using a HEK cell line stably expressing a human nAChRα6-α3 chimera, in addition to β2 and β3^V273S subunits (as in Capelli et al, Br J Pharmacol 163(2): 313-29 2011). […]
pIC50: −log10 of the molar value.
# reported pIC50; entries follow

{"compound": "Cc1nc(NC(C)[C@H]2CCCN2)ncc1-c1ccc(C(F)(F)F)cc1F (single isomer, unassigned) [Example 129a]", "pIC50": 7.19}
{"compound": "CN(C)C1CCCC(Nc2ncc(-c3ccc(F)cc3F)c(C#N)n2)C1 (single isomer, unassigned) [Example 59b]", "pIC50": 6.87}
{"compound": "COc1ccc(-c2cnc(NCC3COCCN3C)nc2C)c(Cl)c1 (stereo not shown)", "pIC50": 7.19}
{"compound": "COc1ccc(-c2cnc(NC3CCCC(N(C)C)C3)nc2C#N)c(F)c1 (single isomer, unassigned) [Example 56b]", "pIC50": 6.79}
{"compound": "Cc1nc(NC(C)[C@@H]2CCCN2C)ncc1-c1ccc(C(F)(F)F)cc1F (single isomer, unassigned) [Example 132a]", "pIC50": 7.04}
{"compound": "Cc1nc(NC2CCCN(C)C2)ncc1-c1ccc(F)cc1F (single isomer, unassigned) [Example 77b]", "pIC50": 7.03}
{"compound": "Cc1nc(NC[C@@H]2CCCN2C)ncc1-c1ccc(OC(F)(F)F)cc1F [Example 93b]", "pIC50": 7.96}
{"compound": "Cc1nc(NC[C@H]2CCCN2C)ncc1-c1ccc(C(F)(F)F)cc1F [Example 91a]", "pIC50": 8.10}
{"compound": "Cc1nc(NC2CCN(C(C)C)CC2)ncc1-c1ccc(OC(F)(F)F)cc1F", "pIC50": 6.83}
{"compound": "Cc1nc(NC2CCCN(C)C2)ncc1-c1ccc(F)cc1F (single isomer, unassigned) [Example 77a]", "pIC50": 7.15}
{"compound": "Cc1nc(NC2CCN3CCCC23)ncc1-c1ccc(OC(F)(F)F)cc1F (single isomer, unassigned) [Example 97a]", "pIC50": 6.74}
{"compound": "Cc1nc(NC[C@H]2CCCNC2)ncc1-c1ccc(C(F)(F)F)cc1F", "pIC50": 6.92}
{"compound": "CN1CCCC(CNc2ncc(-c3ccc(F)cc3)cn2)C1 (stereo not shown)", "pIC50": 6.68}
{"compound": "COc1ccc(-c2cnc(NCC3CCCCN3C(C)C)nc2C)c(F)c1 (stereo not shown)", "pIC50": 6.99}
{"compound": "Cc1nc(NC2CCN3CCCC23)ncc1-c1ccc(OC(F)(F)F)cc1F (single isomer, unassigned) [Example 97b]", "pIC50": 6.82}
{"compound": "Cc1nc(NCC2CCCCN2C)nnc1-c1ccc(F)cc1F (stereo not shown)", "pIC50": 6.31}
